Where these numbers come from: PubChem BioAssay (EPA / NIEHS)

Read-out: Human Leukocyte Antigen - DR isotype (HLADR), HLA-DRA (gene 3122)
Experiment: BSK_3C_HLADR: BioMAP Diversity Plus: 3C Assay for Human Leukocyte Antigen - DR isotype (HLADR) Biomarker Activity (AID 2283019)
Details: primary human endothelial cells (HUVEC); actives raise or lower the signal
Activity calls are given as the source filed them. How the source made its calls: active means hit-call score of the fitted dose curve at least 0.9, where 1 is the maximum; inactive means score below 0.9.
RECORDED METRIC: AC50

>  <MOLECULE>
CCOP(=S)(OCC)Oc1ccc([N+](=O)[O-])cc1

>  <RECORDED METRIC>
AC50

>  <OBSERVED MEASUREMENT>
inactive

$$$$
>  <MOLECULE>
CCOP(=S)(Oc1cnc(C(C)(C)C)nc1)OC(C)C (stereo unspecified)

>  <RECORDED METRIC>
AC50

>  <OBSERVED MEASUREMENT>
31.3 µM (active)

$$$$
>  <MOLECULE>
CCC(CC)Nc1c([N+](=O)[O-])cc(C)c(C)c1[N+](=O)[O-]

>  <RECORDED METRIC>
AC50

>  <OBSERVED MEASUREMENT>
36.2 µM (active)

$$$$
>  <MOLECULE>
CC1=NNC(=O)N(/N=C/c2cccnc2)C1

>  <RECORDED METRIC>
AC50

>  <OBSERVED MEASUREMENT>
inactive

$$$$
>  <MOLECULE>
C=C(C)[C@H]1Cc2c(ccc3c2O[C@@H]2COc4cc(OC)c(OC)cc4[C@@H]2C3=O)O1

>  <RECORDED METRIC>
AC50

>  <OBSERVED MEASUREMENT>
3.82 µM (active)

$$$$

The reported value for O=c1ccc(=O)[nH][nH]1 in terms of AC50 is inactive

Input C#CCC1=C(C)C(OC(=O)C2C(C=C(C)C)C2(C)C)CC1=O (stereo unspecified) . Output AC50: 20 µM (active)

Given item CCOC(=O)COc1cc(-c2nn(C)c(OC(F)F)c2Cl)c(F)cc1Cl , the value recorded as its AC50 is inactive

Query CCC(=NOC/C=C/Cl)C1=C(O)CC(C2CCOCC2)CC1=O (stereo unspecified) yields AC50 of inactive

Value of measured AC50 for the entry CON=C(C(=O)OC)c1ccccc1CON=C(C)c1cccc(C(F)(F)F)c1 : 2.82 µM (active)

// CN1COCN(Cc2cnc(Cl)s2)C1=N[N+](=O)[O-] : AC50 value = inactive
